# Experimental target: PAR2 (HT-29 cells, trypsin activation) (Homo sapiens, UniProt P55085)
# Construct: host or cells: HT-29 cells
# Sequence (P55085 26-397): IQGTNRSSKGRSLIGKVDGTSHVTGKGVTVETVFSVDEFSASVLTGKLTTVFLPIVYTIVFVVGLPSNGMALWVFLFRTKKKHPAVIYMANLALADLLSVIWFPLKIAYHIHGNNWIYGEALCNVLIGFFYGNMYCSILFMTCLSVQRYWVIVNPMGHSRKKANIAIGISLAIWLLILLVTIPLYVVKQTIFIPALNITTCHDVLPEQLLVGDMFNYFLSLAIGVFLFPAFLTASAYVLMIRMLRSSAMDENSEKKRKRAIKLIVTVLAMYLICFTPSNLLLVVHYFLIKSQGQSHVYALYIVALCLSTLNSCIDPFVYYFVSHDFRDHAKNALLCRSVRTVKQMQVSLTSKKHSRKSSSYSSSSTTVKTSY
# Assay details: Ca FLIPR TETRA assay, ANTAGONIST mode, stimulation with 3.1 U/mL trypsin
# Assay type: cell-based
# Condition description: HT-29 cells, stimulation with 3.1 U/mL trypsin
# Method: Example 60: Protocol for Testing PAR2 Compounds in ANTAGONIST Mode Using the Ca FLIPR^TETRA Assay (384 Well) […] A first read was performed to determine whether the test compounds on their own can activate Ca2+ responses. The cells were incubated with the compounds for 30 min at r. t. and then read in ANTAGONIST mode in the same plate by stimulating with 6.2 uL of a fixed concentration of the activator: final concentrations: 8 μM SLIGKV, 1 U/mL Thrombin, 3.1 U/mL trypsin, or 0.6 μM UTP.
So basically: is IC50 under 9 µM? Then Criterion met. Not under? Then Criterion not met.

CC(C)c1cc(-c2ccc(F)cc2)nn2cc(C(=O)N3CCC4(CC3)CNC(=O)O4)nc12 :: Criterion met

stdin: Is IC50 of O=C(c1cn2nc(-c3ccc(F)cc3)cc(C(F)(F)F)c2n1)N1CC[C@@]2(O)CCCC[C@H]2C1 strictly below 9 µM?
stdout: Criterion met

stdin: Now consider NC(=O)C1CCCCN1C(=O)c1cn2nc(-c3ccc(F)cc3)cc(C(F)(F)F)c2n1 (stereo not shown) .
stdout: Criterion not met

stdin: Also check COC(=O)[C@@H]1CCN(C(=O)c2cn3nc(-c4ccc(F)cc4)cc(C)c3n2)C[C@@H]1C
stdout: Criterion met

stdin: Also need Cc1cc(-c2ccc(F)cc2)nn2cc(C(=O)N3CCCC4(COC4)C3)nc12 , thanks.
stdout: Criterion not met

stdin: Proceed to CCc1cc(-c2ccc(F)cc2)nn2cc(C(=O)N3CCN(C(=O)Cc4ccncc4)[C@@H](C)C3)nc12
stdout: Criterion met

* * *

# Experimental target: PAR2 (HT-29 cells, SLIGKV activation) (Homo sapiens, UniProt P55085)
# Construct: host or cells: HT-29 cells
# Assay details: Ca FLIPR TETRA assay, ANTAGONIST mode, stimulation with 8 μM SLIGKV
# Format: cell-based
# Condition description: HT-29 cells, stimulation with 8 μM SLIGKV
# Protocol: Example 60: Protocol for Testing PAR2 Compounds in ANTAGONIST Mode Using the Ca FLIPR^TETRA Assay (384 Well) […] A first read was performed to determine whether the test compounds on their own can activate Ca2+ responses. The cells were incubated with the compounds for 30 min at r. t. and then read in ANTAGONIST mode in the same plate by stimulating with 6.2 uL of a fixed concentration of the activator: final concentrations: 8 μM SLIGKV, 1 U/mL Thrombin, 3.1 U/mL trypsin, or 0.6 μM UTP.
Measured pIC50 of individual entries
For clarity, pIC50 is expressed as the negative log10 of concentration in mol/L.

O=C1NCCN2CCN(C(=O)c3cn4nc(-c5ccc(F)cc5)cc(C(F)(F)F)c4n3)CC12 (stereo not drawn) :: 5.89

stdin: I have this molecule here, CC(C)c1cc(-c2ccc(F)cc2)nn2cc(C(=O)N3CCN(CC(C)(C)O)C(=O)C3(C)C)nc12 , and I need its recorded pIC50.
stdout: 7.49

stdin: Proceed to CC(C)c1cc(-c2ccc(F)cc2)nn2cc(C(=O)N3CCN(C(=O)OC(C)(C)C)[C@@H](C)C3)nc12
stdout: 7.36

stdin: Proceed to C[C@H]1CN(C(=O)c2cn3nc(-c4ccc(F)cc4)cc(C(F)(F)F)c3n2)CCN1C(=O)[C@@H]1CCCO1
stdout: 5.80

stdin: CC1(C)CN(C(=O)C2(O)CCC2)CCN1C(=O)c1cn2nc(-c3ccc(F)cc3)cc(C(F)(F)F)c2n1 ?
stdout: 6.70

stdin: Further, for CCc1cc(-c2ccc(F)cc2)nn2cc(C(=O)N3CCN(C(=O)[C@H](O)C(C)(C)C)[C@@H](C)C3)nc12 ?
stdout: 7.66

stdin: Entry to check: CCc1cc(-c2ccc(F)cc2)nn2cc(C(=O)N3CCN(C(=O)Cc4ccncc4)[C@@H](C)C3)nc12
stdout: 6.19

stdin: And then C[C@H]1CN(C(=O)c2cn3nc(-c4ccc(F)cc4)ccc3n2)CCN1C(=O)[C@H](O)CC(C)(C)C , what is it?
stdout: 6.32

stdin: CC(C)c1cc(-c2ccc(F)cc2)nn2cc(C(=O)N3CCN(C(=O)C4(O)CC4)[C@@H](C)C3)nc12 ?
stdout: 7.00
